Factor improvement (relative hCXCR4 expression, anti-Rho1D4 immunoblot fluorescence) for assorted binders
Molecular target: hCXCR4Rho1D4 (full-length human CXCR4 receptor with C-terminal Rho1D4 tag) (human, UniProt P61072 6-352 (Pan troglodytes entry))
Sequence (P61072 other isoform, or with tags, fused parts or gaps limits assumed): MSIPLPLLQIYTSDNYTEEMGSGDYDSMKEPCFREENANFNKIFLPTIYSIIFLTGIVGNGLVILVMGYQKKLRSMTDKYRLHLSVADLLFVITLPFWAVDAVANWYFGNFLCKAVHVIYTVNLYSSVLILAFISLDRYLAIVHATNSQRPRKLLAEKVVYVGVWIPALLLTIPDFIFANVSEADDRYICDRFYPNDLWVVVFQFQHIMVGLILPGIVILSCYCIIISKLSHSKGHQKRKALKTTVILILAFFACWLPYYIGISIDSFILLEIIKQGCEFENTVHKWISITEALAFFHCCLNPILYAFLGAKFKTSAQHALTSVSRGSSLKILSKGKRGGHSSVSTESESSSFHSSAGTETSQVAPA
Assay: cell-based or functional assay
EXPERIMENTAL_ENDPOINT: Factor improvement (relative hCXCR4 expression, anti-Rho1D4 immunoblot fluorescence) (fold)

- BINDER: "Nanobody CA4143 (VHH) VHH: QVQLQESGGGLVQPGGSLRLSCAASGFTFSSYAMSWVRQAPGKGLEWVSTINSGGRSANYADSVKGRLTISRDNAKNTLHLQMNSLKPEDTALYYCARPRSVSRNYVPLGYDYLGQGTQVTVSS"
  NUMERIC_VALUE: 3
- BINDER: "Nanobody CA4500 (VHH) VHH: QVQLQESGGGLVQAGGSLRLSCAASGSTSGIIAMGWYRQAPGKQRELVARISSGSSTNYADSVKGRFTVSRDNAKNTVYLQMNSLKPEDTAVYYCNAVRRGYRNDYNSWGQGTQVTVSS"
  NUMERIC_VALUE: 1.3
- BINDER: "Nanobody CA4140 (VHH) VHH: QVQLQESGGGLVQPGGSLRLSCAASGSIFSINAMGWYRQAPGKQRELVAAITSGGSTNYADSVKGRFTISRDNAENTVYLQMNNLKPEDTAVYSCNAEGTSGSSRYRRRYEYWGKGTQVTVSS"
  NUMERIC_VALUE: 2.8
- BINDER: "Nanobody CA4142 (VHH) VHH: QVQLQESGGGLVRTGGSLRLSCAGSGSFFSINPMGWYRQAPGQQRELVATITGSGSTNYADSVKGRFTISRDNAKNTLYLQMNSLKPEDTAVYYCNAGYFDRIGRRYDRWGQGTQVTVSS"
  NUMERIC_VALUE: 2.6

Where these numbers come from: patent US20230071321A1
